Numbers sourced from patent US5491169A.

# protocol text: Hot plate test, i.v.
# Type: in vivo
# applied conditions: Mus musculus, iv, mice, hot plate 55° C., Table III 50% analgesia
Reported ED50 is given for each of the following compounds.
Numeric only. Scale: mg/kg

Before answering, review these 8 worked examples.
[
  {
    "compound": "CC(NC(=O)C(CC[S+](C)[O-])CSSCC(N)CC[S+](C)[O-])C(=O)OCc1ccccc1 (stereo not drawn) [Example 22]",
    "measurement unit": "mg/kg",
    "experimental result": 4.5
  },
  {
    "compound": "C[S+]([O-])CCC(N)CSSCC(Cc1ccccc1)C(=O)NC1CCCCC1C(=O)OCc1ccccc1 (stereo not drawn) [Example 26]",
    "measurement unit": "mg/kg",
    "experimental result": 8
  },
  {
    "compound": "CSCCC(N)CSSCC(Cc1ccccc1)C(=O)NC(Cc1ccccc1)C(=O)OCc1ccccc1 (stereo not drawn) [Example 7]",
    "measurement unit": "mg/kg",
    "experimental result": 5
  },
  {
    "compound": "C[S+]([O-])CCC(N)CSSCC(CC[S+](C)[O-])C(=O)NC(CC(=O)OCc1ccccc1)Cc1ccccc1 (stereo not drawn) [Example 30]",
    "measurement unit": "mg/kg",
    "experimental result": 3
  },
  {
    "compound": "C[S+]([O-])CCC(N)CSSCC(CC[S+](C)[O-])C(=O)NC1CCCCC1C(=O)OCc1ccccc1 (stereo not drawn) [Example 32]",
    "measurement unit": "mg/kg",
    "experimental result": 2
  },
  {
    "compound": "CC(C)CC(N)CSSCC(Cc1ccccc1)C(=O)NCC(=O)OCc1ccccc1 (stereo not drawn) [Example 1]",
    "measurement unit": "mg/kg",
    "experimental result": 4
  },
  {
    "compound": "C[S+]([O-])CCC(N)CSSCC(CC[S+](C)[O-])C(=O)NC(CC(=O)OCc1ccccc1)c1ccccc1 (stereo not drawn) [Example 28]",
    "measurement unit": "mg/kg",
    "experimental result": 4
  },
  {
    "compound": "C[S+]([O-])CCC(N)CSSCC(Cc1ccccc1)C(=O)NCC(=O)OCc1ccccc1 (stereo not drawn) [Example 8]",
    "measurement unit": "mg/kg",
    "experimental result": 2.5
  }
]

Proceed to the following item.
Determine its reported ED50: CSCCC(N)CSSCC(Cc1ccccc1)C(=O)NCC(=O)OCc1ccccc1 (stereo not drawn) [Example 5]
2.5
